Where do these numbers come from? They come from patent US20030139352A1.

# Test system: human PGP (P-glycoprotein) (Homo sapiens, UniProt P08183)
# Sequence (P08183 whole entry): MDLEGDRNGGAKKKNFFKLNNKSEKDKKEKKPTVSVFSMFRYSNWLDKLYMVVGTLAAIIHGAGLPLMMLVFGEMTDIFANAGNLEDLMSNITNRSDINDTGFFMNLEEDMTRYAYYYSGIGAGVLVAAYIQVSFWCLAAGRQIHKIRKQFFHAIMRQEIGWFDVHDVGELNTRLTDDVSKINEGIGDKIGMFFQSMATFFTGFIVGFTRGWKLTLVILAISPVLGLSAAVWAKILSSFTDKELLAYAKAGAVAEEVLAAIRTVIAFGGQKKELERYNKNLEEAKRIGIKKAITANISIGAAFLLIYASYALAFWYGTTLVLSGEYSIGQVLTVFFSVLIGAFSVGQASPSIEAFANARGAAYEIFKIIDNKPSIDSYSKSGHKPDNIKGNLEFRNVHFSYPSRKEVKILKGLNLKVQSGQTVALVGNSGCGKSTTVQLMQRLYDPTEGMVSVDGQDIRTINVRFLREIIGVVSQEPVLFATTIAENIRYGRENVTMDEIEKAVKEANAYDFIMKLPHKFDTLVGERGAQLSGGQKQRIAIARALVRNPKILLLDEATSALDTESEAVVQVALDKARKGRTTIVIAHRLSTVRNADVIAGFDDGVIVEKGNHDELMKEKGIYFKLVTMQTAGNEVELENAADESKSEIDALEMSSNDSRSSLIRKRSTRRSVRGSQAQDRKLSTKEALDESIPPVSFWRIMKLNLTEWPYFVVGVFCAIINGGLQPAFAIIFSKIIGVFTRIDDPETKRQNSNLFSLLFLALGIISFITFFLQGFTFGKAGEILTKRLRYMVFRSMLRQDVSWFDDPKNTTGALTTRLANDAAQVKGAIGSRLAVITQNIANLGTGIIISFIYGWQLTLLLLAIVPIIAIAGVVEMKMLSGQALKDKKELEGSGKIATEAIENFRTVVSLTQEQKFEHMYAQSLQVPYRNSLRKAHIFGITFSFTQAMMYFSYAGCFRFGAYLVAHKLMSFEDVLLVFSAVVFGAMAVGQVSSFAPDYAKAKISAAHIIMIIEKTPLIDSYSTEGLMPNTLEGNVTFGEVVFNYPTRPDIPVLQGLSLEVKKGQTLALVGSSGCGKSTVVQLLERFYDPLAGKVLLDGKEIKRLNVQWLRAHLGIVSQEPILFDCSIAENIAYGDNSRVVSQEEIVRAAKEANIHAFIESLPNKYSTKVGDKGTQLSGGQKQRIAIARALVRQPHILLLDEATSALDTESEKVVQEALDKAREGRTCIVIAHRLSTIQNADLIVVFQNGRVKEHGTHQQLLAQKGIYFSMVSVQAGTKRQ
# Measurement notes: Inhibition of human PGP-mediated [3H]-digoxin transport in 15B-J (LLC-PK1 expressing human PGP) monolayers
# Experimental conditions: human, pH 7.2, Ketoconazole Normalized % Inhibition of Digoxin Transport, 0.001 μM test substance; normalized to 25 μM ketoconazole
Property measured: inhibition at 90 min, 0.001 μM (%)
One number for each entry, in %.

[
  {
    "Sample smiles": "C=C1CC[C@@]2(O)[C@H]3Cc4ccc(O)c5c4[C@@]2(CCN3CC2CC2)[C@H]1O5",
    "Recorded number": 4
  }
]

Query molecule follows.
C=CCN1CC[C@]23c4c5ccc(O)c4O[C@H]2C(=O)CC[C@@]3(O)[C@H]1C5 has a reported inhibition at 90 min, 0.001 μM of 10

====

# Test system: human PGP (P-glycoprotein) (Homo sapiens, UniProt P08183)
# Measurement notes: Inhibition of human PGP-mediated [3H]-digoxin transport in 15B-J (LLC-PK1 expressing human PGP) monolayers
# Experimental conditions: human, pH 7.2, % Inhibition of Digoxin Transport, 0.0001 μM test substance; 5 μM [3H]-digoxin; 90 min
Property measured: inhibition at 90 min, 0.0001 μM (%)
Give bare numbers, in %.

C=C1CC[C@@]2(O)[C@H]3Cc4ccc(O)c5c4[C@@]2(CCN3CC2CC2)[C@H]1O5 [Nalmefene, nalmefene] has a reported inhibition at 90 min, 0.0001 μM of 5.2

====

# Test system: human PGP (P-glycoprotein) (Homo sapiens, UniProt P08183)
# Measurement notes: Inhibition of human PGP-mediated [3H]-digoxin transport in 15B-J (LLC-PK1 expressing human PGP) monolayers
# Experimental conditions: human, pH 7.2, % Inhibition of Digoxin Transport, 0.1 μM test substance; 5 μM [3H]-digoxin; 90 min
Property measured: inhibition at 90 min, 0.1 μM

Entry C=C1CC[C@@]2(O)[C@H]3Cc4ccc(O)c5c4[C@@]2(CCN3CC2CC2)[C@H]1O5 [Nalmefene, nalmefene] : inhibition at 90 min, 0.1 μM on human PGP (P-glycoprotein) (Homo sapiens, UniProt P08183) = -0.3%

====

# Test system: UniProtKB P08183
# Measurement notes: Inhibition of human PGP-mediated [3H]-digoxin transport in 15B-J (LLC-PK1 expressing human PGP) monolayers
# Experimental conditions: human, pH 7.2, Ketoconazole Normalized % Inhibition of Digoxin Transport, 0.1 μM test substance; normalized to 25 μM ketoconazole
Property measured: inhibition at 90 min, 0.1 μM (%)
Numbers only, in %.

C=CCN1CC[C@]23c4c5ccc(O)c4O[C@H]2C(=O)CC[C@@]3(O)[C@H]1C5 [Naloxone, naloxone] has a reported inhibition at 90 min, 0.1 μM of -2.7

====

Hi there, I'd appreciate the recorded inhibition at 90 min, 30 μM for every entry that follows.
# Test system: human PGP (P-glycoprotein) (Homo sapiens, UniProt P08183)
# Measurement notes: Inhibition of human PGP-mediated [3H]-digoxin transport in 15B-J (LLC-PK1 expressing human PGP) monolayers
# Experimental conditions: human, pH 7.2, Ketoconazole Normalized % Inhibition of Digoxin Transport, 30 μM test substance; normalized to 25 μM ketoconazole
Give the number first and the unit second.

[
  {
    "Sample smiles": "C=C1CC[C@@]2(O)[C@H]3Cc4ccc(O)c5c4[C@@]2(CCN3CC2CC2)[C@H]1O5",
    "Test system": "human PGP (P-glycoprotein) (Homo sapiens, UniProt P08183)",
    "inhibition at 90 min, 30 μM": "51%"
  }
]

C=CCN1CC[C@]23c4c5ccc(O)c4O[C@H]2C(=O)CC[C@@]3(O)[C@H]1C5 has a reported inhibition at 90 min, 30 μM of 41%

====

# Test system: human PGP (P-glycoprotein) (Homo sapiens, UniProt P08183)
# Measurement notes: Inhibition of human PGP-mediated [3H]-digoxin transport in 15B-J (LLC-PK1 expressing human PGP) monolayers
# Experimental conditions: human, pH 7.2, Ketoconazole Normalized % Inhibition of Digoxin Transport, 3.0 μM test substance; normalized to 25 μM ketoconazole
Property measured: inhibition at 90 min, 3 μM (%)
Answers are plain numbers, in %.

[
  {
    "Sample smiles": "C=CCN1CC[C@]23c4c5ccc(O)c4O[C@H]2C(=O)CC[C@@]3(O)[C@H]1C5",
    "Units symbol": "%",
    "inhibition at 90 min, 3 μM": -11
  }
]

Query compound follows.
C=C1CC[C@@]2(O)[C@H]3Cc4ccc(O)c5c4[C@@]2(CCN3CC2CC2)[C@H]1O5 has a reported inhibition at 90 min, 3 μM of 14

====

# Test system: human PGP (P-glycoprotein) (Homo sapiens, UniProt P08183)
# Measurement notes: Inhibition of human PGP-mediated [3H]-digoxin transport in 15B-J (LLC-PK1 expressing human PGP) monolayers
# Experimental conditions: human, pH 7.2, % Inhibition of Digoxin Transport, 10 μM test substance; 5 μM [3H]-digoxin; 90 min
Property measured: inhibition at 90 min, 10 μM (%)
Numbers only, in %.

C=C1CC[C@@]2(O)[C@H]3Cc4ccc(O)c5c4[C@@]2(CCN3CC2CC2)[C@H]1O5 has a reported inhibition at 90 min, 10 μM of 13

====

# Test system: human PGP (P-glycoprotein) (Homo sapiens)
# Measurement notes: Inhibition of human PGP-mediated [3H]-digoxin transport in 15B-J (LLC-PK1 expressing human PGP) monolayers
# Experimental conditions: human, pH 7.2, % Inhibition of Digoxin Transport, 0.001 μM test substance; 5 μM [3H]-digoxin; 90 min
Property measured: inhibition at 90 min, 0.001 μM
Give the number first and the unit second.

C=C1CC[C@@]2(O)[C@H]3Cc4ccc(O)c5c4[C@@]2(CCN3CC2CC2)[C@H]1O5 has a reported inhibition at 90 min, 0.001 μM of 2.8%

====

# Test system: human PGP (P-glycoprotein) (Homo sapiens)
# Measurement notes: Inhibition of human PGP-mediated [3H]-digoxin transport in 15B-J (LLC-PK1 expressing human PGP) monolayers
# Experimental conditions: human, pH 7.2, Ketoconazole Normalized % Inhibition of Digoxin Transport, 0.0003 μM test substance; normalized to 25 μM ketoconazole
Hi there, I'd appreciate the recorded inhibition at 90 min, 0.0003 μM for every entry that follows.
Answers are plain numbers, in %.

[
  {
    "Sample smiles": "C=CCN1CC[C@]23c4c5ccc(O)c4O[C@H]2C(=O)CC[C@@]3(O)[C@H]1C5",
    "inhibition at 90 min, 0.0003 μM (%)": 8.4
  }
]

Query compound follows.
C=C1CC[C@@]2(O)[C@H]3Cc4ccc(O)c5c4[C@@]2(CCN3CC2CC2)[C@H]1O5 has a reported inhibition at 90 min, 0.0003 μM of 10
